- ASSAY_DETAILS: protein stability index of a GFP-peptide fusion (GPS, HEK-293T) (PSI 1-6); higher = more stable;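 further: 24-mer peptide tiles fused after GFP, lentivirally expressed, FACS-sorted into six equal bins by GFP/DsRed ratio, decoded by Illumina sequencing, PSI is the read-weighted mean bin number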
- ASSAY_CONTEXT: treatment: MLN4924 1 uM, 8 h; c terminus: a fixed tail appended
OBSERVATION_TYPE: protein stability index

1) EGHSIVGFAMYYFTYDPWIGKLLY [SAT1] : 3.02
2) RILQDEQYLMASDMAGKIKLWDLR [DCAF4] : 3.01
3) LGCALLAAHAVVLCALPVHVAVEH [SOAT2] : 3.09
4) KLKPHEEPLRSEILSGKFTILNVR [PTPN9] : 2.96
5) PAPLCGGPSAEAYLLHPAAFHGAP [TBX6] : 2.95
